pIC50: −log10 of the molar value.
// endpoint pIC50 / system Sigma-1 (human) (Homo sapiens)
parameterMeasured: pIC50

I = CS(=O)(=O)N(C[C@H]1CCCN(CCc2ccccc2)C1)c1ccccc1
II = CS(=O)(=O)N(CC1CCCN(CCc2ccccc2)C1)c1ccccc1 (racemic)
stdin: Select the item with the higher value of pIC50 from the options I and II listed. Choose, then provide that item's label.
stdout: I
(I: 7.66, II: 6.93)

* * *

Target: NMDA (PCP site)
Experiment: NMDA receptor (PCP site) radioligand binding screen
parameterMeasured: IC50 (µM)
Give your result in µM as a bare value.

stdin: Checklist item: IC50 tested on NMDA (PCP site), entry CS(=O)(=O)N(CC1CCCNC1)c1ccccc1 (stereo not shown) [Compound 5] , value?
stdout: 0.108

* * *

Target: NE Transporter (Homo sapiens)
Sequence (P23975 whole entry): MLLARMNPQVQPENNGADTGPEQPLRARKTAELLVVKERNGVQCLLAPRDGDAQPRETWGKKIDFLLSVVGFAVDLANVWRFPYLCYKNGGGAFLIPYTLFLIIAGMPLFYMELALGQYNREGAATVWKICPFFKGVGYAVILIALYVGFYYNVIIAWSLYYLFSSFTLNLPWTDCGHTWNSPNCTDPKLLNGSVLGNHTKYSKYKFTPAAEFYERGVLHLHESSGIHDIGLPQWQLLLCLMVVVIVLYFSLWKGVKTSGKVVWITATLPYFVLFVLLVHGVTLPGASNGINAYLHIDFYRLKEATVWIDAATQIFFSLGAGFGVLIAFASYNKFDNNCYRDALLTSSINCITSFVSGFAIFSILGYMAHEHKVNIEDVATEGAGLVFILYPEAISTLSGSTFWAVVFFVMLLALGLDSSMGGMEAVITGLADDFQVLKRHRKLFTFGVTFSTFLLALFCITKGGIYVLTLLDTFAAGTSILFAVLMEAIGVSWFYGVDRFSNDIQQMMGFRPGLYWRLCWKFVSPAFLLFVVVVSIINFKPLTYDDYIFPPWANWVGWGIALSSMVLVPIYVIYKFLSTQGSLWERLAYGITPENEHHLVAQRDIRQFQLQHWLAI
parameterMeasured: IC50 (nM)
Give your result in nM as a bare value.

stdin: Checklist item: IC50 tested on NE Transporter (Homo sapiens), entry CS(=O)(=O)N(C[C@@H]1CCCN(CC2(c3ccc(Cl)cc3)CCC2)C1)c1ccccc1 [Compound 21] , value?
stdout: 62

* * *

Target: 5-HT Transporter (UniProt P31645)
parameterMeasured: IC50 (µM)
Give your result in µM as a bare value.

stdin: Checklist item: IC50 tested on 5-HT Transporter (UniProt P31645), entry CS(=O)(=O)N(C[C@@H]1CCCN(CC2(c3ccc(Cl)cc3)CCC2)C1)c1ccccc1 , value?
stdout: 2.8
